# ASSAYED TARGET: GlyT1 (Homo sapiens, UniProt P48067)
# Construct: Human placental choriocarcinoma cells endogenously expressing GlyT1
# Sequence (P48067 whole entry): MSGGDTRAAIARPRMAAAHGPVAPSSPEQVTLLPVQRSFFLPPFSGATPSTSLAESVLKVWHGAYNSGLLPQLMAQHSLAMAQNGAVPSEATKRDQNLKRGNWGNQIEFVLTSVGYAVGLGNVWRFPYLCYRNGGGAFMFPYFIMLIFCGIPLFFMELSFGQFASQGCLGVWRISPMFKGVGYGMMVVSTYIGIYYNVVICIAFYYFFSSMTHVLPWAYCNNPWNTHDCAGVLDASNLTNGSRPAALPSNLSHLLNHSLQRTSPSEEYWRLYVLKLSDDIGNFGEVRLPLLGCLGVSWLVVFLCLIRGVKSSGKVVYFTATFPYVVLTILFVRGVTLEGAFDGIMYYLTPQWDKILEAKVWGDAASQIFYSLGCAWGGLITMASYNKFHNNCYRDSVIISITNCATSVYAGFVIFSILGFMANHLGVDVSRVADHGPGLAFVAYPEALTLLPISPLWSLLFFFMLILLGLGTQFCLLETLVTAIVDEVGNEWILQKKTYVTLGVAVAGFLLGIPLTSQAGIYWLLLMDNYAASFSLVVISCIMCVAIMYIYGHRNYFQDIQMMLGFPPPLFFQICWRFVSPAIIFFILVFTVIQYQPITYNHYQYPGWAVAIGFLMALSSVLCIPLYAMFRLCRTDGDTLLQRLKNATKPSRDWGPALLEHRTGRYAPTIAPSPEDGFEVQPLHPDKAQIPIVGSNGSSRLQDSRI
# METHOD NOTES: [14C]-glycine uptake in JAR cells endogenously expressing GlyT1 (scintillation proximity assay)
# EXPERIMENTAL CONTEXT: 10 μM [14C]-glycine, 3 h, read-out: Potency
Rule: measured IC50 below 300 nM gets yes (1); anything equal to or greater than 300 nM gets no (0).

Some solved cases for reference:
CCCS(=O)(=O)N1CCC2(CC1)c1ccccc1CC2NC(=O)c1ccccc1OC (centres unmarked)    no (0)
CCCS(=O)(=O)N1CCC2(CC1)c1ccccc1CC2NC(=O)c1ccc(Cl)cc1Cl (centres unmarked) [Compound 7d]    yes (1)
CCCS(=O)(=O)N1CCC2(CC1)c1ccccc1CC2NC(=O)c1ccc(Cl)c(Cl)c1 (centres unmarked)    no (0)
CCCS(=O)(=O)N1CCC2(CC1)c1ccccc1CC2NC(=O)c1c(F)cccc1F (centres unmarked)    no (0)
Cn1cnc(S(=O)(=O)N2CCC3(CC2)c2ccccc2CC3NC(=O)c2cccc(C(F)(F)F)c2)c1 (centres unmarked)    no (0)

Problem: Answer whether the compound CCCCS(=O)(=O)N1CCC2(CC1)c1ccccc1CC2NC(=O)c1ccc(Cl)cc1Cl (centres unmarked) has IC50 strictly less than 300 nM
Solution: no (0)

Problem: Answer whether the compound Cn1cnc(S(=O)(=O)N2CCC3(CC2)c2ccccc2CC3NC(=O)c2ccc(F)cc2F)c1 (centres unmarked) has IC50 strictly less than 300 nM
Solution: yes (1)

Problem: Answer whether the compound Cn1cnc(S(=O)(=O)N2CCC3(CC2)c2ccccc2CC3NC(=O)c2ccc(Cl)c(Cl)c2)c1 (centres unmarked) has IC50 strictly less than 300 nM
Solution: yes (1)

Problem: Answer whether the compound CCCS(=O)(=O)N1CCC2(CC1)c1ccccc1CC2NC(=O)c1ccc(C(F)(F)F)cc1 (centres unmarked) has IC50 strictly less than 300 nM
Solution: yes (1)

----------
# ASSAYED TARGET: GlyT1 (Homo sapiens)
# Construct: Human placental choriocarcinoma cells endogenously expressing GlyT1
# METHOD NOTES: [14C]-glycine uptake in JAR cells endogenously expressing GlyT1 (scintillation proximity assay)
# EXPERIMENTAL CONTEXT: 10 μM [14C]-glycine, 3 h, read-out: Potency
QUANTITY MEASURED: pIC50
Numbers only, as −log10 of the molar value.

CCCS(=O)(=O)N1CCC2(CC1)c1ccccc1CC2NC(=O)c1ccc(Cl)cc1Cl (single isomer, unassigned) [Compound 7c]    5.89

The reported pIC50 of the compound Cn1cnc(S(=O)(=O)N2CCC3(CC2)c2ccccc2CC3NC(=O)c2c(F)cccc2F)c1 (stereo not shown) was 8.00

----------
# ASSAYED TARGET: GlyT1 (Homo sapiens)
# Construct: Human placental choriocarcinoma cells endogenously expressing GlyT1
# METHOD NOTES: [14C]-glycine uptake in JAR cells endogenously expressing GlyT1 (scintillation proximity assay)
# EXPERIMENTAL CONTEXT: 10 μM [14C]-glycine, 3 h, read-out: Potency
# From the text: The procedure used was analogous to that disclosed in Williams, J. B.; Mallorga P. J.; Lemaire W.; Williams D. L.; Na S.; Patel S.; Conn J. P.; Pettibone D. J.; Austin C.; Sur C.; “Development of a scintillation proximity assay for analysis of Na+/Cl−-dependent neurotransmitter transporter activity,” ANAL. BIOCHEM. 2003 Oct. 1; 321(1):31-7. Human placental choriocarcinoma cells (JAR cells, ATCC No. HTB-144) were obtained from the American Type Culture Collection (Manassas, Va.). […]
Rule: measured IC50 below 700 nM gets true; anything equal to or greater than 700 nM gets false.

Some solved cases for reference:
CCCS(=O)(=O)N1CCC2(CC1)c1ccccc1CC2NC(=O)c1cccc(C(F)(F)F)c1 (centres unmarked) [Compound 5e]    false
CCCS(=O)(=O)N1CCC2(CC1)c1ccccc1CC2NC(=O)c1ccc(Cl)cc1Cl (centres unmarked) [Compound 2c]    true
Cn1cnc(S(=O)(=O)N2CCC3(CC2)c2ccccc2CC3NC(=O)c2ccc(Cl)cc2Cl)c1 (centres unmarked) [Compound 7a]    false

Problem: Answer whether the compound CCCS(=O)(=O)N1CCC2(CC1)c1ccccc1CC2NC(=O)c1ccccc1C(F)(F)F (centres unmarked) [Compound 5d] has IC50 strictly less than 700 nM
Solution: true

Problem: Answer whether the compound Cn1cnc(S(=O)(=O)N2CCC3(CC2)c2ccccc2CC3NC(=O)c2ccc(Cl)cc2)c1 (centres unmarked) [Compound 4b] has IC50 strictly less than 700 nM
Solution: true

Problem: Answer whether the compound CS(=O)(=O)N1CCC2(CC1)c1ccccc1CC2NC(=O)c1ccc(Cl)cc1Cl (centres unmarked) [Compound 2a] has IC50 strictly less than 700 nM
Solution: false

Problem: Answer whether the compound CCCS(=O)(=O)N1CCC2(CC1)c1ccccc1CC2NC(=O)c1ccc(Cl)cc1 (centres unmarked) [Compound 5a] has IC50 strictly less than 700 nM
Solution: false

Problem: Answer whether the compound O=C(NC1Cc2ccccc2C12CCN(S(=O)(=O)c1cccs1)CC2)c1ccc(Cl)cc1Cl (centres unmarked) [Compound 2i] has IC50 strictly less than 700 nM
Solution: false

----------
# ASSAYED TARGET: GlyT1 (Homo sapiens, UniProt P48067)
# Construct: Human placental choriocarcinoma cells endogenously expressing GlyT1
# METHOD NOTES: [14C]-glycine uptake in JAR cells endogenously expressing GlyT1 (scintillation proximity assay)
# EXPERIMENTAL CONTEXT: 10 μM [14C]-glycine, 3 h, read-out: Potency
Answer each item with its documented pIC50.
Answers are plain numbers, as −log10 of the molar value.

Worked cases, answers included:
CCCS(=O)(=O)N1CCC2(CC1)c1ccccc1CC2NC(=O)c1ccccc1I (stereo not drawn)    6.58
Cn1cnc(S(=O)(=O)N2CCC3(CC2)c2ccccc2CC3NC(=O)c2ccccc2Cl)c1 (stereo not drawn)    7.74

Noted pIC50 for Cn1cnc(S(=O)(=O)N2CCC3(CC2)c2ccccc2CC3NC(=O)c2ccccc2C(F)(F)F)c1 (stereo not drawn) , tested on GlyT1 (Homo sapiens, UniProt P48067): 7.62
